compounds and their reported IC50
assay_method_text: Inhibition of gamma secretase in CHO cells stably expressing amyloid precursor protein assessed as reduction in Abeta42 levels by ELISA
Format: cell-based
reported_conditions: Cricetulus griseus
Reply with just the number (in µM).

Short answer for `CC(=O)O[C@H]([C@H]1C[C@@H](C)[C@H]2[C@@](O)(O1)[C@H](O)[C@@]1(C)C3=CC[C@H]4C(C)(C)[C@@H](O[C@@H]5OC[C@@H](O)[C@H](O)[C@H]5O)CC[C@@]45C[C@@]35CC[C@]21C)C(C)(C)O` : IC50 was 8.1

Short answer for `C[C@@H]1C[C@H]([C@@H](O)C(C)(C)O)O[C@H]2C(=O)[C@@]3(C)C4=C(CC[C@]3(C)[C@@H]12)C[C@]12CC[C@H](O1)C(C)(C)[C@@H]2CC4` : IC50 was 6.2

Short answer for `COC(C)(C)[C@H]1O[C@@]23O[C@@H]1C[C@@H](C)[C@@H]2[C@@]1(C)CC[C@@]24C[C@@]25CC[C@H](O[C@@H]2OC[C@@H](O)[C@H](O)[C@H]2O)C(C)(C)[C@@H]5CC=C4[C@]1(C)[C@H]3O` : IC50 was 10.1

Short answer for `CC(=O)O[C@@H]1[C@H](O)[C@@H](O)[C@H](O[C@H]2CC[C@]34C[C@]35CC[C@]3(C)[C@H]6[C@H](C)C[C@H]([C@@H](OC(C)=O)C(C)(C)O)O[C@@]6(O)[C@H](O)[C@@]3(C)C5=CC[C@H]4C2(C)C)O[C@@H]1CO` : IC50 was 14.4

These measurements were taken from ChEMBL document CHEMBL4602677.
